Test system: HepG2
Experiment: cytotoxicity call (relative viability < 0.9)
Settings: 10 µM
Out of some 39,000 compounds screened, about 3,300 (8.5%) were called active. Many of the other results were omitted from the sample, so actives are more common in it than they were.
Property: cytotoxicity call

{"Smiles Text": "COc1ccc2c3c([nH]c2c1)[C@@H](CO)N(Cc1ccc(cc1)Cl)C[C@]13CCN(CC1)Cc1ccccc1", "Test System": "HepG2", "Property": "cytotoxicity call", "Val": "active"}
{"Smiles Text": "COc1ccc2c3c([nH]c2c1)[C@H](CO)N(C[C@]13CCN(CC1)Cc1ccccc1)C(=O)CN1CCOCC1", "Test System": "HepG2", "Property": "cytotoxicity call", "Val": "active"}
{"Smiles Text": "Cc1ccc(S(=O)(=O)Nc2ccc3c(c2)C(=O)N([C@@H](C)CO)C[C@H](C)[C@@H](CN(C)S(=O)(=O)c2ccc(F)cc2)OCCCC[C@H](C)O3)cc1", "Test System": "HepG2", "Property": "cytotoxicity call", "Val": "inactive"}
{"Smiles Text": "COc1ccc2c3c([nH]c2c1)[C@@H](CO)N(Cc1ccc(cc1)Cl)C[C@]13CCN(CC1)Cc1nccs1", "Test System": "HepG2", "Property": "cytotoxicity call", "Val": "inactive"}
{"Smiles Text": "Cc1ccc(S(=O)(=O)N(C)C[C@@H]2OCCCC[C@@H](C)Oc3ccc(NS(=O)(=O)c4ccc(F)cc4)cc3C(=O)N([C@H](C)CO)C[C@H]2C)cc1", "Test System": "HepG2", "Property": "cytotoxicity call", "Val": "active"}
{"Smiles Text": "COc1ccc2c3c([nH]c2c1)[C@H](CO)N(Cc1ccncc1)C[C@]13CCN(CC1)Cc1ccc(cc1)-c1ccccn1", "Test System": "HepG2", "Property": "cytotoxicity call", "Val": "inactive"}
{"Smiles Text": "COc1ccc(cc1)CN1C[C@]2(CCN(CC2)Cc2ccccc2OC)c2c([nH]c3cc(ccc23)OC)[C@@H]1CO", "Test System": "HepG2", "Property": "cytotoxicity call", "Val": "inactive"}
{"Smiles Text": "COc1ccc2c3c([nH]c2c1)[C@H](CO)N(C[C@]13CCN(CCc2ccccc2)CC1)C(=O)CN1CCOCC1", "Test System": "HepG2", "Property": "cytotoxicity call", "Val": "inactive"}
{"Smiles Text": "Cc1ccc(S(=O)(=O)N(C)C[C@H]2OCCCC[C@H](C)Oc3ccc(NS(=O)(=O)c4ccc(F)cc4)cc3C(=O)N([C@H](C)CO)C[C@H]2C)cc1", "Test System": "HepG2", "Property": "cytotoxicity call", "Val": "inactive"}
{"Smiles Text": "COc1ccc2c3c([nH]c2c1)[C@H](CO)N(Cc1ccc(cc1)Cl)C[C@]13CCN(CC1)Cc1nccs1", "Test System": "HepG2", "Property": "cytotoxicity call", "Val": "inactive"}
{"Smiles Text": "Cc1ccc(S(=O)(=O)N(C)C[C@@H]2OCCCC[C@H](C)Oc3ccc(NS(=O)(=O)c4ccc(F)cc4)cc3C(=O)N([C@@H](C)CO)C[C@H]2C)cc1", "Test System": "HepG2", "Property": "cytotoxicity call", "Val": "active"}
{"Smiles Text": "Cc1ccc(S(=O)(=O)N(C)C[C@@H]2OCCCC[C@H](C)Oc3ccc(NS(=O)(=O)c4ccc(F)cc4)cc3C(=O)N([C@H](C)CO)C[C@@H]2C)cc1", "Test System": "HepG2", "Property": "cytotoxicity call", "Val": "active"}
{"Smiles Text": "Cc1ccc(S(=O)(=O)Nc2ccc3c(c2)C(=O)N([C@@H](C)CO)C[C@@H](C)[C@H](CN(C)S(=O)(=O)c2ccc(F)cc2)OCCCC[C@@H](C)O3)cc1", "Test System": "HepG2", "Property": "cytotoxicity call", "Val": "inactive"}
{"Smiles Text": "Cc1ccc(S(=O)(=O)Nc2ccc3c(c2)C(=O)N([C@H](C)CO)C[C@H](C)[C@@H](CN(C)S(=O)(=O)c2ccc(F)cc2)OCCCC[C@H](C)O3)cc1", "Test System": "HepG2", "Property": "cytotoxicity call", "Val": "inactive"}

* * *

Test system: HepG2
Assay: cytotoxicity call (relative viability < 0.9)
Settings: 10 µM
About 3,300 (8.5%) of roughly 39,000 compounds were called active. For the sample, actives were picked, then their nearest neighbours and some compounds at random.
Outcome codes: active, inactive

{"Smiles Text": "CC(C)CC#Cc1cnc2c(c1)C(=O)N([C@H](C)CO)C[C@@H](C)[C@@H](CN(C)C(=O)c1ccc3c(c1)OCO3)O2", "Cat": "inactive"}
{"Smiles Text": "C[C@@H]1CN([C@@H](C)CO)C(=O)c2cc(NC(=O)Nc3ccccc3)ccc2O[C@@H](C)CCCCO[C@H]1CN(C)C(=O)Cc1ccccc1", "Cat": "inactive"}
{"Smiles Text": "CO[C@@H]1CN(C)C(=O)c2cc(NS(=O)(=O)CC(F)(F)F)ccc2OC[C@H](C)N(Cc2cccnc2)C[C@@H]1C", "Cat": "inactive"}
{"Smiles Text": "C[C@@H]1CN([C@@H](C)CO)S(=O)(=O)c2ccc(C#CC3CCCCC3)cc2O[C@@H]1CN(C)C(=O)Cc1ccncc1", "Cat": "inactive"}
{"Smiles Text": "C[C@@H]1CCCCO[C@H](CN(C)C(=O)C2CCCCC2)[C@@H](C)CN([C@@H](C)CO)C(=O)c2cc(NC(=O)Nc3ccc(F)cc3)ccc2O1", "Cat": "active"}
{"Smiles Text": "C[C@@H]1CCCCO[C@H](CN(C)C(=O)C2CCCCC2)[C@H](C)CN([C@@H](C)CO)C(=O)c2cc(NC(=O)Nc3ccc(F)cc3)ccc2O1", "Cat": "inactive"}
{"Smiles Text": "C[C@@H]1CCCCO[C@@H](CN(C)C(=O)C2CCCCC2)[C@H](C)CN([C@@H](C)CO)C(=O)c2cc(NC(=O)Nc3ccc(F)cc3)ccc2O1", "Cat": "inactive"}
{"Smiles Text": "CO[C@@H]1CN(C)C(=O)c2cc(NC(=O)CC(F)(F)F)ccc2OC[C@@H](C)N(S(=O)(=O)c2cn(C)cn2)C[C@@H]1C", "Cat": "inactive"}
{"Smiles Text": "CN1CCN(C(=O)C[C@@H]2CC[C@H]3[C@H](COc4ccc(NC(=O)c5cscn5)cc4C(=O)N3C)O2)CC1", "Cat": "inactive"}
{"Smiles Text": "C[C@H]1CCCCO[C@@H](CN(C)C(=O)C2CCCCC2)[C@@H](C)CN([C@@H](C)CO)C(=O)c2cc(NC(=O)Nc3ccc(F)cc3)ccc2O1", "Cat": "active"}
{"Smiles Text": "Nc1ccc(Cl)nn1", "Cat": "inactive"}
{"Smiles Text": "C[C@@H]1CN([C@H](C)CO)C(=O)Cc2cc(NC(=O)CCN3CCOCC3)ccc2O[C@H]1CN(C)S(=O)(=O)c1cccs1", "Cat": "inactive"}
{"Smiles Text": "C[C@@H]1CN([C@@H](C)CO)C(=O)c2cc(NS(=O)(=O)c3ccc(F)cc3)ccc2O[C@@H]1CN(C)C(=O)Nc1cccc2ccccc12", "Cat": "inactive"}
{"Smiles Text": "O=C1/C(=C/C=C/c2ccco2)CCC/C1=C\\C=C\\c1ccco1", "Cat": "inactive"}
{"Smiles Text": "C[C@H](CO)N1C[C@H](C)[C@@H](CN(C)CC2CCOCC2)Oc2cc(-c3cccnc3)ccc2S1(=O)=O", "Cat": "inactive"}

* * *

Tested on: HepG2
Assay: cytotoxicity call (relative viability < 0.9)
Details: 10 µM
Out of some 39,000 compounds screened, about 3,300 (8.5%) were called active. What follows is part of a selection rich in actives, with near analogues and random picks from the rest.
Outcome codes: TRUE for active, FALSE for inactive

{"Smiles Text": "COc1ccccc1-c1cccc(-c2nc(C(=O)Nc3nccs3)cc3c2[C@@H](CCO)N(C(=O)CC2CC2)C3)c1", "Cat": "TRUE"}
{"Smiles Text": "COc1ccccc1-c1cccc(-c2nc(C(=O)Nc3nccs3)cc3c2[C@H](CCO)N(C(=O)CC2CC2)C3)c1", "Cat": "FALSE"}
{"Smiles Text": "Cc1cccc(S(=O)(=O)N2C[C@@H](O)COC[C@H]3O[C@H](CC(=O)NCc4ccc(Cl)c(Cl)c4)CC[C@@H]32)c1", "Cat": "FALSE"}
{"Smiles Text": "Cc1ccc(S(=O)(=O)N2C[C@H](O)COC[C@H]3O[C@H](CC(=O)NCc4ccc(Cl)c(Cl)c4)CC[C@@H]32)cc1", "Cat": "FALSE"}

* * *

Tested on: HepG2
Assay: cytotoxicity call (relative viability < 0.9)
Conditions: 10 µM
Out of some 39,000 compounds screened, about 3,300 (8.5%) were called active. For the sample, actives were picked, then their nearest neighbours and some compounds at random.
Outcome codes: true for active, false for inactive

{"Molecule": "C[C@H]1CN([C@@H](C)CO)C(=O)c2cccc(NC(=O)c3ccc(-c4nccs4)cc3)c2O[C@@H]1CN(C)C(=O)Nc1ccc(F)cc1", "Cat": "false"}
{"Molecule": "CCNC(=O)CCC(N)C(=O)[O-].[K+] (stereo unspecified)", "Cat": "false"}
{"Molecule": "Cc1cc(NC(=O)CSc2nnc[nH]2)no1", "Cat": "false"}
{"Molecule": "Cc1noc(C)c1NC(=O)Nc1ccc2c(c1)CC(=O)N([C@H](C)CO)C[C@@H](C)[C@@H](CN(C)C(=O)NC(C)C)O2", "Cat": "false"}
{"Molecule": "CC1=NCCN1", "Cat": "false"}
{"Molecule": "CC(=O)NCCCC[C@@H]1NC(=O)[C@@H]2C[C@H](C(=O)NCCCCCN)[C@H](c3ccc(O)cc3)N2C1=O", "Cat": "false"}
{"Molecule": "C[C@@H]1CN([C@H](C)CO)S(=O)(=O)c2ccc(C#CCN(C)C)cc2O[C@H]1CN(C)Cc1ccc(F)cc1", "Cat": "true"}
{"Molecule": "C[C@@H]1CN([C@@H](C)CO)C(=O)c2cc(NC(=O)Nc3ccc(C(F)(F)F)cc3)ccc2O[C@@H](C)CCCCO[C@@H]1CN(C)S(=O)(=O)c1ccc(F)cc1", "Cat": "false"}
{"Molecule": "Cc1ccc(S(=O)(=O)N(C)C[C@H]2OCCCC[C@H](C)Oc3ccc(NS(=O)(=O)c4ccc(F)cc4)cc3C(=O)N([C@H](C)CO)C[C@@H]2C)cc1", "Cat": "false"}
{"Molecule": "CO[C@H]1CN(C)C(=O)c2ccc(NC(=O)CC(F)(F)F)cc2OC[C@H](C)N(S(=O)(=O)c2cn(C)cn2)C[C@H]1C", "Cat": "false"}
{"Molecule": "COc1ccc(S(=O)(=O)N(C)C[C@@H]2OCCCC[C@H](C)Oc3ccc(NS(=O)(=O)c4ccc(Cl)cc4)cc3C(=O)N([C@@H](C)CO)C[C@@H]2C)cc1", "Cat": "true"}
{"Molecule": "COc1ccc(S(=O)(=O)Nc2ccc3c(c2)C(=O)N([C@H](C)CO)C[C@H](C)[C@@H](CN(C)S(=O)(=O)c2ccc(Cl)cc2)OCCCC[C@H](C)O3)cc1", "Cat": "false"}
{"Molecule": "COc1ccc(S(=O)(=O)Nc2ccc3c(c2)C(=O)N([C@@H](C)CO)C[C@@H](C)[C@@H](CN(C)S(=O)(=O)c2ccc(Cl)cc2)OCCCC[C@H](C)O3)cc1", "Cat": "false"}
{"Molecule": "C[C@H](CO)N1C[C@H](C)[C@H](CN(C)Cc2ccc(F)cc2)Oc2cc(C#CCN(C)C)ccc2S1(=O)=O", "Cat": "true"}
{"Molecule": "CC(=O)NCCCC[C@@H]1NC(=O)[C@@H]2C[C@H](C(=O)NCCCCCCNC(=O)CS)[C@H](c3ccc(O)cc3)N2C1=O", "Cat": "false"}
{"Molecule": "Nc1cccc(C2=NCCN2)c1", "Cat": "false"}
{"Molecule": "C[C@@H]1CN([C@@H](C)CO)C(=O)c2cc(NC(=O)CCCN(C)C)ccc2O[C@@H]1CN(C)S(=O)(=O)c1ccc(F)cc1", "Cat": "false"}
{"Molecule": "COCC#Cc1ccc2c(c1)O[C@@H](CN(C)S(=O)(=O)c1cccc(OC)c1)[C@H](C)CN([C@@H](C)CO)S2(=O)=O", "Cat": "false"}
{"Molecule": "CCC=CCC=CCC=CCC=CCC=CCCCC(=O)OCC [OMEGA-3-ACID ESTERS (EPA shown) ]", "Cat": "false"}
{"Molecule": "C[C@@H]1CN([C@@H](C)CO)C(=O)Cc2cc(NC(=O)Nc3ccc(C(F)(F)F)cc3)ccc2O[C@@H]1CN(C)C(=O)Nc1cccc2ccccc12", "Cat": "false"}
{"Molecule": "CC(C)NC(=O)N(C)C[C@H]1Oc2c(NS(=O)(=O)c3cn(C)cn3)cccc2C(=O)N([C@@H](C)CO)C[C@@H]1C", "Cat": "false"}
{"Molecule": "O=C(Nc1nccs1)[C@H]1[C@H](CO)[C@H]2Cn3c(cccc3=O)[C@@H]1N2C(=O)C1CC1", "Cat": "false"}
{"Molecule": "COCC(=O)N1C[C@H](C)[C@H](OC)CN(C)C(=O)c2ccc(NC(=O)Nc3ccccc3)cc2OC[C@@H]1C", "Cat": "false"}
{"Molecule": "CCCCCCCCCCCCCCCC(=O)CCO", "Cat": "false"}
{"Molecule": "C[C@@H]1CN([C@@H](C)CO)C(=O)c2cccc(NC(=O)c3ccncc3)c2O[C@H]1CN(C)Cc1ccc2c(c1)OCO2", "Cat": "false"}
{"Molecule": "C[C@@H]1CN([C@H](C)CO)C(=O)c2cc(NS(=O)(=O)c3ccccc3)ccc2O[C@@H](C)CCCCO[C@@H]1CN(C)S(C)(=O)=O", "Cat": "false"}
{"Molecule": "O=C(C[C@H]1CC[C@H]2[C@@H](COC[C@@H](O)CN2S(=O)(=O)c2ccccc2)O1)NCCN1CCCC1", "Cat": "false"}
{"Molecule": "C=CC(=O)N1C[C@@H]2CC[C@H](O)[C@@H]2C1", "Cat": "false"}
{"Molecule": "CCCCCCCCCCCCCCCCCCCCCCCCCCCCO", "Cat": "false"}
{"Molecule": "C[C@@H]1CN([C@@H](C)CO)C(=O)Cc2cc(NC(=O)Nc3cccc4ccccc34)ccc2O[C@H]1CN(C)C(=O)NC1CCCCC1", "Cat": "false"}
{"Molecule": "O=C(C[C@@H]1CC[C@H]2[C@@H](COC[C@@H](O)CN2C(=O)c2ccccn2)O1)NC1CCC1", "Cat": "false"}

Origin of values: the antibiotic and cytotoxicity screens of Wong et al. (2023)
